Data origin, for the record: patent US8629173B2

# assay_protocol: Interconversion studies of solid forms
# Format: physicochemical
# study_conditions: EQ in acetone:ethanol (1:1) at 25° C., at least 2 days
parameter: Interconversion: Analysis by XRPD (solid form after equilibration)

[[record]]
compound = "CCOc1cc(C(CS(C)(=O)=O)N2C(=O)c3cccc(NC(C)=O)c3C2=O)ccc1OC (single isomer, unassigned; (+)) [Form D]"
result = "Form B"

[[record]]
compound = "CCOc1cc(C(CS(C)(=O)=O)N2C(=O)c3cccc(NC(C)=O)c3C2=O)ccc1OC (single isomer, unassigned; (+)) [Form A]"
result = "Form B"

[[record]]
compound = "CCOc1cc(C(CS(C)(=O)=O)N2C(=O)c3cccc(NC(C)=O)c3C2=O)ccc1OC (single isomer, unassigned; (+)) [Form E]"
result = "Form B"


###

# assay_protocol: physchem
# study_conditions: pH 7.4, aqueous buffer, thermodynamic from solid
parameter: solubility (µg/mL)
Write the answer as a number in µg/mL, unit excluded.

Give its solubility value. Item: CCOc1cc(C(CS(C)(=O)=O)N2C(=O)c3cccc(NC(C)=O)c3C2=O)ccc1OC (single isomer, unassigned; (+)) [Compound A] 12

###

# assay_protocol: Stability studies of solid forms
# Type: physicochemical
# study_conditions: 40° C./75% RH; 4 weeks
parameter: Stability: Appearance

[[record]]
molecule = "CCOc1cc(C(CS(C)(=O)=O)N2C(=O)c3cccc(NC(C)=O)c3C2=O)ccc1OC (single isomer, unassigned; (+)) [Form B]"
parameter = "Stability: Appearance"
result = "White solid"

[[record]]
molecule = "CCOc1cc(C(CS(C)(=O)=O)N2C(=O)c3cccc(NC(C)=O)c3C2=O)ccc1OC (single isomer, unassigned; (+)) [Form D]"
parameter = "Stability: Appearance"
result = "White solid"

[[record]]
molecule = "CCOc1cc(C(CS(C)(=O)=O)N2C(=O)c3cccc(NC(C)=O)c3C2=O)ccc1OC (single isomer, unassigned; (+)) [Form A]"
parameter = "Stability: Appearance"
result = "White solid"

